Data origin, for the record: PubChem BioAssay

The entries below come with measured viability values attached.
Test: reversal of MRP1-mediated doxorubicin resistance, pilot screen, H69AR cells, doxorubicin co-treatment (AID 601)
Details: H69AR cells + 2 uM doxorubicin, CellTiter-Glo, 72 h; measured here: viability with 2 uM doxorubicin; at 10 µM; stronger effect = lower value
parameter: viability

compound=CCc1ccc(NC(=O)c2cccnc2)cc1 parameter=viability obs_value=81.7%
compound=Cc1cc(O)c(-c2cc(C(=O)Nc3ccc(S(=O)(=O)N4CCOCC4)cc3)[nH]n2)cc1C parameter=viability obs_value=59.2%
compound=CCOc1ccccc1OCCCCN1CCCC1 parameter=viability obs_value=89.4%
compound=Cc1cc(C)n(C(=O)CCCCCC(=O)n2nc(C)cc2C)n1 parameter=viability obs_value=94.5%
compound=CCOC(=O)CC(=O)c1cc(OC)c(OC)c(OC)c1 parameter=viability obs_value=95.6%
compound=O=C(CSc1nc2ccccc2o1)N1CCN(c2ccc(Cl)cc2)CC1 parameter=viability obs_value=85.9%
compound=CN(C)CCNC(=O)c1ccc(COCC(F)(F)F)cc1 parameter=viability obs_value=83.5%
compound="COc1ccc(C(=O)Nn2c(SCC(=O)NCC3CCCO3)nc3ccccc3c2=O)cc1 (stereo unspecified)" parameter=viability obs_value=74.5%
compound=COc1ccc(-c2noc(CSc3nc4ccccc4c(=O)n3-c3ccccc3)n2)cc1OC parameter=viability obs_value=80.7%
compound=COC(=O)c1ccc(CSc2nc3ccccc3s2)o1 parameter=viability obs_value=104%
compound="Cc1cccc2cc(C(c3nnnn3C(C)(C)C)N3CCN(C(=O)c4ccco4)CC3)c(=O)[nH]c12 (stereo unspecified)" parameter=viability obs_value=83%

---

The entries below come with measured differential viability (reversal) values attached.
Test: reversal of MRP1-mediated doxorubicin resistance, pilot screen, H69AR cells, doxorubicin co-treatment (AID 601)
Conditions: H69AR cells + 2 uM doxorubicin, CellTiter-Glo, 72 h; at 10 µM; stronger effect = higher value
parameter: differential viability (reversal) (%)

compound=Cc1cc(C)cc(NC(=O)c2nnn(Cc3cc(C)ccc3C)c2N)c1 endpoint_unit=% obs_value=-2.83
compound="O=C(NC1CCCC1)C(c1cccs1)N(C(=O)c1ccno1)c1ccccc1 (stereo unspecified)" endpoint_unit=% obs_value=6.13
compound="CC1CN(C2CCCCC2)c2nc3c(c(=O)[nH]c(=O)n3C)n2C1 (stereo unspecified)" endpoint_unit=% obs_value=-2.19
compound="CC1(C2(O)CC(c3ccccc3)ON2)CCCCC1 (stereo unspecified)" endpoint_unit=% obs_value=-0.32
compound=Cc1cnc(C(=O)Nc2ccccc2-n2cccc2)cn1 endpoint_unit=% obs_value=3.75
compound=COc1ccc(C(=O)NCCc2nnc(SCc3nc4ccccc4c(=O)[nH]3)n2C)cc1 endpoint_unit=% obs_value=9.63
compound=CN1CCN(CCCN2c3ccccc3Sc3ccc(C(F)(F)F)cc32)CC1 endpoint_unit=% obs_value=-3.17
compound=CCn1cnc2sc(C(=O)Nc3ccc4c(c3)OCO4)c(C)c2c1=O endpoint_unit=% obs_value=11
compound=Cc1ccc(S(=O)(=O)Cn2nnnc2CN(Cc2ccco2)Cc2cccs2)cc1 endpoint_unit=% obs_value=4.66
compound=O=C(CCSc1nc(-c2ccco2)cc(C(F)(F)F)n1)NCCc1ccccc1 endpoint_unit=% obs_value=-15.4
compound=COc1ccccc1C(=O)N1CCN(CCc2ccccc2)CC1 endpoint_unit=% obs_value=3.95

---

The entries below come with measured viability values attached.
Assay: reducers of endogenous Her2 protein level, primary screen, SKBR3 breast tumor cells, AlphaScreen, ATP viability (AID 461);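 note: percent of carrier control wells set as 100% viability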
Details: 18-24 h, measured here: SKBR3 viability, ATP luminescence, at 10 µM
parameter: viability

compound=COCCN(CCOC)C(=O)c1sc2nc(-c3ccccc3)cn2c1C parameter=viability obs_value=93%
compound=COc1ccc(-c2noc(CCC(=O)NCCCN3CCC(Cc4ccccc4)CC3)n2)cc1 parameter=viability obs_value=87.5%
compound=CCn1c(CCC(=O)Nc2nc3c(s2)CCCC3)nc2cc(S(=O)(=O)N(C)C)ccc21 parameter=viability obs_value=89.5%
compound=OC1(c2cccc(C(F)(F)F)c2)CCNCC1 parameter=viability obs_value=110%
compound=COc1ccc(C2(C(=O)Nc3c(C)n(C)n(-c4ccccc4)c3=O)CCCC2)cc1OC parameter=viability obs_value=94%
compound="CC(C)COC(=O)C(C#N)c1nc2ccccc2nc1N1CCN(Cc2ccccc2)CC1 (stereo not given)" parameter=viability obs_value=76%
compound=CN(C)c1cccc(NC(=O)CCc2ccccc2)c1 parameter=viability obs_value=86%
compound=CCCCn1c(SCC(=O)NCc2ccccc2)nc2ccc(N3CCOCC3)cc2c1=O parameter=viability obs_value=80%
compound="O=C1C2C3C=CC(C3=C3CCCCC3)C2C(=O)N1c1ccccc1 (stereo not given)" parameter=viability obs_value=131%
compound=Cc1ccc2cc(CN(CCN3CCCC3)C(=O)Nc3ccc(F)cc3)c(=O)[nH]c2c1C parameter=viability obs_value=94.5%

---

Experiment: reversal of MRP1-mediated doxorubicin resistance, pilot screen, H69AR cells, doxorubicin co-treatment (AID 601)
Settings: H69AR cells, CellTiter-Glo, 72 h; compound alone cytotoxicity; at 10 µM
parameter: viability (%)

compound=Cc1cc(C)n(C(C)n2nc(C)cc2C)n1 obs_value=87.8
compound=CCCCCn1c2nc3ccccc3nc2c2c(=O)n(CC(C)C)cnc21 obs_value=87.3
compound=COC(=O)/C=c1/s/c(=C(/C#N)C(=O)N2CCOCC2)n(-c2ccccc2)c1=O obs_value=88.8
compound=COCCn1c(-c2ccco2)nc2nc3ccccc3nc21 obs_value=77.3
compound="Cc1ccc(NC(=O)COS(=O)c2ccc(C)cc2)cc1 (centres undefined)" obs_value=38.6
compound=COc1cccc(-c2cc(C(=O)Nc3cc(C)n(Cc4ccc(Cl)cc4)n3)no2)c1 obs_value=52.1
compound=CCc1nc(SCC(=O)NCc2ccco2)c2c3c(sc2n1)CCCC3 obs_value=67.8
compound=COC(=O)c1cc(Br)c(=O)n(CCc2ccc(F)cc2)c1 obs_value=100
compound=Cc1ccc(CCNC(=O)C2CCN(S(=O)(=O)c3cccc4nsnc34)CC2)cc1 obs_value=95.6
compound=O=C(Nc1ccc2nn(-c3ccccc3)nc2c1)c1ccc(Br)o1 obs_value=9.49
compound=CC(C)Oc1ccc2c(=O)c(-c3ccccc3)coc2c1 obs_value=89.7
compound=CCOc1ccc(-c2cc(C(=O)N3CCN(c4ccccn4)CC3)c3ccccc3n2)cc1 obs_value=12.5
compound=c1ccc(-c2cc(N3CCCCC3)ncn2)cc1 obs_value=99.7
compound=Nc1c(C(=O)NCc2ccco2)nnn1Cc1ccccc1 obs_value=96
compound=Nc1ccc(S(=O)(=O)Nc2ccccn2)cc1 obs_value=91.3
compound=Cc1cc(C)c(S(=O)(=O)N(C)CC(N)=O)c(C)c1 obs_value=91.7
compound=C[C@]12CC[C@@H]3c4ccc(O)cc4CC[C@H]3[C@@H]1CCC2=O obs_value=91.8
compound=c1ccc(OCc2nc3ccccc3[nH]2)cc1 obs_value=92.2
compound=O=c1c(-c2ccc(F)cc2)coc2c3c(ccc12)OCCO3 obs_value=107
compound=Cn1cccc1C(=O)NC(=O)CSc1nnc(C2CC2)n1-c1ccccc1 obs_value=85.7
compound="CCC1Oc2ccc(C)cc2N(CC(=O)NCCCN2CCCCC2CC)C1=O (centres undefined)" obs_value=87.5
compound="C/C(CC(O)(/C=N/O)c1ccccc1)=N\\O (centres undefined)" obs_value=94
compound=Cc1ccccc1Cc1c(C)nc2c(C(=O)N3CCN(Cc4ccc5c(c4)OCO5)CC3)cnn2c1C obs_value=79
compound="Cc1ccc2c(c1)C(N1CCCC1=O)CC(c1ccco1)N2 (centres undefined)" obs_value=68.7

---

Experiment: reversal of MRP1-mediated doxorubicin resistance, pilot screen, H69AR cells, doxorubicin co-treatment (AID 601)
Conditions: H69AR cells + 2 uM doxorubicin, CellTiter-Glo, 72 h; at 10 µM; stronger effect = higher value
The entries below come with measured differential viability (reversal) values attached.
parameter: differential viability (reversal) (%)

compound="O=C(NC1CC2CCC1C2)C1COc2ccccc2O1 (stereo unspecified)" parameter="differential viability (reversal)" endpoint_unit=% obs_value=4.5
compound=Cc1cccc(-n2c(N)c(C(=O)N3CCN(C)CC3)sc2=S)c1 parameter="differential viability (reversal)" endpoint_unit=% obs_value=8.09
compound="CC[C@]1(O)CC2CN(CCc3c([nH]c4ccccc34)[C@@](C(=O)OC)(c3cc4c(cc3OC)N(C=O)[C@H]3[C@@](O)(C(=O)OC)[C@H](OC(C)=O)[C@]5(CC)C=CCN6CC[C@]43[C@@H]65)C2)C1 (stereo partly specified)" parameter="differential viability (reversal)" endpoint_unit=% obs_value=-27
compound="CC1CCCC(NC(=O)CN2CCN(Cc3ccc(Cl)cc3)C2=O)C1C (stereo unspecified)" parameter="differential viability (reversal)" endpoint_unit=% obs_value=16.2
compound="CCN(CC(=O)NC1CCS(=O)(=O)C1)C(=O)C(c1ccccc1)c1ccccc1 (stereo unspecified)" parameter="differential viability (reversal)" endpoint_unit=% obs_value=14.2
compound=Cc1ccc(OCC(=O)N2CCN(C(=O)CCC3CCCC3)CC2)cc1 parameter="differential viability (reversal)" endpoint_unit=% obs_value=-13.4
compound=CC(=O)Nc1ccc(NC(=O)Cn2cnc3c(cnn3C(C)(C)C)c2=O)cc1 parameter="differential viability (reversal)" endpoint_unit=% obs_value=13.8
compound="Cn1c(=O)[nH]c(=O)c2c1nc(N1CCOCC1)n2CC(O)COc1ccc2ccccc2c1 (stereo unspecified)" parameter="differential viability (reversal)" endpoint_unit=% obs_value=-1.6
compound=O=C(COc1ccc2c(c1)OCO2)NC12CC3CC(CC(C3)C1)C2 parameter="differential viability (reversal)" endpoint_unit=% obs_value=-5.25
compound=CCOc1cc(C)c(C(C)C)cc1S(=O)(=O)N1CCN(C)CC1 parameter="differential viability (reversal)" endpoint_unit=% obs_value=2.99
compound="CCC[C@@H]1C[C@@H](C(=O)N[C@H]([C@@H](C)O)[C@H]2O[C@H](SC)[C@H](O)[C@@H](O)C2O)N(C)C1 (stereo partly specified)" parameter="differential viability (reversal)" endpoint_unit=% obs_value=9.67
compound=COc1ccc(-n2nnnc2SCC(=O)c2ccc(O)c(O)c2)cc1 parameter="differential viability (reversal)" endpoint_unit=% obs_value=-41.9
compound=CCOC(=O)c1cnc(C(C)(C)C)[nH]c1=O parameter="differential viability (reversal)" endpoint_unit=% obs_value=7.84
compound=O=C(CCCCn1c(=O)[nH]c2ccsc2c1=O)NCc1cccnc1 parameter="differential viability (reversal)" endpoint_unit=% obs_value=2.01
compound=Cc1cc(C)c2nc(C(F)(F)F)nc(NCCCN3CCCC3=O)c2c1 parameter="differential viability (reversal)" endpoint_unit=% obs_value=-9.04
compound="CCn1c(C(Cc2ccccc2)NC(=O)COC)nc2ccccc21 (stereo unspecified)" parameter="differential viability (reversal)" endpoint_unit=% obs_value=8.84
compound=O=C(CN1C(=O)COCC1=O)N1CCOCC1 parameter="differential viability (reversal)" endpoint_unit=% obs_value=-0.64
compound=O=S(=O)(NCc1ccccn1)c1ccc2c(c1)OCCO2 parameter="differential viability (reversal)" endpoint_unit=% obs_value=0.755
compound=COC(=O)C1=C(C)NC(C)=C(C(=O)OC)C1c1ccccc1[N+](=O)[O-] parameter="differential viability (reversal)" endpoint_unit=% obs_value=11.9
compound=Cc1ccc(OCCN2CCN(C(=O)CCC(=O)Nc3nnc(C)s3)CC2)cc1 parameter="differential viability (reversal)" endpoint_unit=% obs_value=-3.2
compound=CCc1cccc(NC(=O)CN(C)S(=O)(=O)c2cccc3nsnc23)c1 parameter="differential viability (reversal)" endpoint_unit=% obs_value=7.68
